# target system: MAP3K11 (human) (UniProt Q16584)
# Sequence (Q16584 whole entry, looked up): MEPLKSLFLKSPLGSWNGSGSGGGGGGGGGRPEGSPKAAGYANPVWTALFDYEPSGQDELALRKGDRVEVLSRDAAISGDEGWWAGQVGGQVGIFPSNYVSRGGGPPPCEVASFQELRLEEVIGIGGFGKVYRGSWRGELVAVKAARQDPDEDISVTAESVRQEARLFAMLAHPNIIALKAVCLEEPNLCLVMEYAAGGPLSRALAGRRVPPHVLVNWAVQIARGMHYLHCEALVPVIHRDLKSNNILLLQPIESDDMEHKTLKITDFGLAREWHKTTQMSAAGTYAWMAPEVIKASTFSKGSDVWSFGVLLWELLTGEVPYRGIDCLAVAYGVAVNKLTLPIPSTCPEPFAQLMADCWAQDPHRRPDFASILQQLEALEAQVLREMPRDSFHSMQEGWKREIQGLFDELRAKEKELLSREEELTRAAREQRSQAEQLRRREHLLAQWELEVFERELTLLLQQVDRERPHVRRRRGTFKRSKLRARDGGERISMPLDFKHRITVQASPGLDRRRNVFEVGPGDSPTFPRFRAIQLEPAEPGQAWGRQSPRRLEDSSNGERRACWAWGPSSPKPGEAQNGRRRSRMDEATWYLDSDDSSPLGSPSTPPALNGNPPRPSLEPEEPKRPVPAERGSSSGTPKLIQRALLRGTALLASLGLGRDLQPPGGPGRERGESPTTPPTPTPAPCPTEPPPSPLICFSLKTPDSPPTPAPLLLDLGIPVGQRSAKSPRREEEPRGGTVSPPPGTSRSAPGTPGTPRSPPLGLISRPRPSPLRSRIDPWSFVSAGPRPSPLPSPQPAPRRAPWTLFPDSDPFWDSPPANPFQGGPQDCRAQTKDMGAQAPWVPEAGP
# assay: KINOMEscan competition binding
# condition info: compound 10.0 µM
Item-by-item account of kinase still bound, per cent of control

- test smiles: "Cc1ccc(NC(=O)c2cccc(C(C)(C)C#N)c2)cc1Nc1ccc2ncn(C)c(=O)c2c1"
  kinase still bound, per cent of control / %: 91
- test smiles: "CCOc1cc2ncc(C#N)c(Nc3ccc(OCc4ccccn4)c(Cl)c3)c2cc1NC(=O)/C=C/CN(C)C"
  kinase still bound, per cent of control / %: 85
- test smiles: "O=C(NOC[C@H](O)CO)c1ccc(F)c(F)c1Nc1ccc(I)cc1F"
  kinase still bound, per cent of control / %: 100
- test smiles: "OCCCNc1cc(-c2ccnc(Nc3cccc(Cl)c3)n2)ccn1"
  kinase still bound, per cent of control / %: 100
- test smiles: "CCCS(=O)(=O)Nc1ccc(F)c(C(=O)c2c[nH]c3ncc(-c4ccc(Cl)cc4)cc23)c1F"
  kinase still bound, per cent of control / %: 81
- test smiles: "CCC(=O)N1CCN(c2ccc(-n3c(=O)ccc4cnc5ccc(-c6cnc7ccccc7c6)cc5c43)cc2C(F)(F)F)CC1"
  kinase still bound, per cent of control / %: 69
- test smiles: "CCN1CCN(Cc2ccc(Nc3ncc4c(n3)N(C)c3ccccc3C(=O)N4C)cc2C(F)(F)F)CC1"
  kinase still bound, per cent of control / %: 84
- test smiles: "Cc1cc([C@@H](C)Nc2ccccc2C(=O)O)c2nc(N3CCOCC3)cc(=O)n2c1"
  kinase still bound, per cent of control / %: 100
- test smiles: "Nc1ccc(-c2ccc3ncc4ccc(=O)n(-c5cccc(C(F)(F)F)c5)c4c3c2)cn1"
  kinase still bound, per cent of control / %: 96
